- METHOD DESCRIPTION: in vitro
- MEASUREMENT CONTEXT: mouse, plasma

COMPOUND	fraction unbound
C[C@]1(COc2ccc(N3CCC(Oc4ccc(OC(F)(F)F)cc4)CC3)cc2)Cn2cc([N+](=O)[O-])nc2O1 [OPC-67683]	0.002
O=[N+]([O-])c1ccc(C2=NOC(c3ccc(N4CCC(Oc5ccc(F)cc5)CC4)cc3)C2)o1 (stereo not shown) [Compound 9d]	0.009
O=[N+]([O-])c1ccc(C2=NOC(c3ccc(N4CCC(Oc5ccc(OC(F)(F)F)cc5)CC4)nc3)C2)o1 (stereo not shown) [Compound 9b]	0.001
O=[N+]([O-])c1ccc(C2=NOC(c3ccc(N4CCC(Oc5ccc(F)cc5)CC4)nc3)C2)o1 (stereo not shown) [Compound 9e]	0.002
O=[N+]([O-])c1ccc(C2=NOC(c3ccc(N4CCC(Oc5ccc(F)cc5)CC4)c(F)c3)C2)o1 (stereo not shown) [Compound 9f]	0.002
O=[N+]([O-])c1ccc(C2=NOC(c3ccc(N4CCC(Oc5ccc(OC(F)(F)F)cc5)CC4)c(F)c3)C2)o1 (stereo not shown) [Compound 9c]	0.024
O=[N+]([O-])c1cn2c(n1)OC[C@@H](OCc1ccc(OC(F)(F)F)cc1)C2 [PA-824]	0.071

====

- METHOD DESCRIPTION: In vitro cytotoxicity against Vero cells
- MEASUREMENT CONTEXT: African green monkey, Vero cells (kidney epithelial cells, ATCC CCL-81)

COMPOUND	RESULT UNIT	IC50
O=[N+]([O-])c1ccc(C2=NOC(c3ccc(N4CCC(Oc5ccc(F)cc5)CC4)nc3)C2)o1 (stereo not shown)	µg/mL	7.5
O=[N+]([O-])c1ccc(C2=NOC(c3ccc(N4CCC(Oc5ccc(OC(F)(F)F)cc5)CC4)nc3)C2)o1 (stereo not shown)	µg/mL	4
C[C@]1(COc2ccc(N3CCC(Oc4ccc(OC(F)(F)F)cc4)CC3)cc2)Cn2cc([N+](=O)[O-])nc2O1	µg/mL	107
O=[N+]([O-])c1ccc(C2=NOC(c3ccc(N4CCC(Oc5ccc(OC(F)(F)F)cc5)CC4)c(F)c3)C2)o1 (stereo not shown)	µg/mL	21.4

====

- METHOD DESCRIPTION: in vivo
- MEASUREMENT CONTEXT: male, Sprague-Dawley, rat, po, 100 mg/kg

COMPOUND	Cmax (ng/mL)
O=[N+]([O-])c1ccc(C2=NOC(c3ccc(N4CCC(Oc5ccc(OC(F)(F)F)cc5)CC4)c(F)c3)C2)o1 (centres unmarked)	150
O=[N+]([O-])c1ccc(C2=NOC(c3ccc(N4CCC(Oc5ccc(OC(F)(F)F)cc5)CC4)nc3)C2)o1 (centres unmarked)	2310

====

- METHOD DESCRIPTION: in vivo
- MEASUREMENT CONTEXT: male, Sprague-Dawley, rat, iv, 10 mg/kg
# clearance values compiled below
MEASURE NAME: clearance (mL/min/kg)

MOLECULE	RESULT UNIT	ASSAY VALUE
O=[N+]([O-])c1ccc(C2=NOC(c3ccc(N4CCC(Oc5ccc(OC(F)(F)F)cc5)CC4)nc3)C2)o1 (centres unmarked)	mL/min/kg	7
O=[N+]([O-])c1ccc(C2=NOC(c3ccc(N4CCC(Oc5ccc(OC(F)(F)F)cc5)CC4)c(F)c3)C2)o1 (centres unmarked)	mL/min/kg	6.83

====

- Tested on: M. tuberculosis strain H37Rv
- METHOD DESCRIPTION: Checkerboard synergy assay
- Type: cell-based, Mycobacterium tuberculosis
- MEASUREMENT CONTEXT: Mycobacterium tuberculosis, H37RV, 168 h, read-out: MIC Alone

COMPOUND	TGT	RESULT UNIT	MIC
CC(=O)NC[C@H]1CN(c2ccc(N3CCOCC3)c(F)c2)C(=O)O1 [Linezolid]	M. tuberculosis strain H37Rv	µg/mL	1.6
CC[C@@H](CO)NCCN[C@@H](CC)CO [Ethambutol]	M. tuberculosis strain H37Rv	µg/mL	1.6
[H]/N=C(/N)N[C@H]1[C@H](O)[C@@H](O)[C@H](O[C@@H]2O[C@@H](C)[C@](O)(C=O)[C@H]2O[C@@H]2O[C@@H](CO)[C@H](O)[C@@H](O)[C@@H]2NC)[C@@H](N/C(N)=N\[H])[C@@H]1O [Streptomycin]	M. tuberculosis strain H37Rv	µg/mL	1.6
NNC(=O)c1ccncc1 [Isoniazid]	M. tuberculosis strain H37Rv	µg/mL	0.02

====

- METHOD DESCRIPTION: physchem
- MEASUREMENT CONTEXT: pH 7.4, aqueous buffer

COMPOUND	solubility / µg/mL
O=[N+]([O-])c1ccc(C2=NOC(c3ccc(N4CCC(Oc5ccc(F)cc5)CC4)nc3)C2)o1 (stereo not drawn) [Compound 9e]	2.2
O=[N+]([O-])c1ccc(C2=NOC(c3ccc(N4CCC(Oc5ccc(OC(F)(F)F)cc5)CC4)c(F)c3)C2)o1 (stereo not drawn) [Compound 9c]	1.9
O=[N+]([O-])c1ccc(C2=NOC(c3ccc(N4CCC(Oc5ccc(F)cc5)CC4)c(F)c3)C2)o1 (stereo not drawn) [Compound 9f]	0.8
O=[N+]([O-])c1ccc(C2=NOC(c3ccc(N4CCC(Oc5ccc(F)cc5)CC4)cc3)C2)o1 (stereo not drawn) [Compound 9d]	0.7
O=[N+]([O-])c1cn2c(n1)OC[C@@H](OCc1ccc(OC(F)(F)F)cc1)C2 [PA-824]	8.5
O=[N+]([O-])c1ccc(C2=NOC(c3ccc(N4CCC(Oc5ccc(OC(F)(F)F)cc5)CC4)nc3)C2)o1 (stereo not drawn) [Compound 9b]	1.6

====

- METHOD DESCRIPTION: in vivo
- MEASUREMENT CONTEXT: male, Sprague-Dawley, rat, iv, 10 mg/kg
Each item that follows carries a reported Vd.

COMPOUND	Vd
O=[N+]([O-])c1ccc(C2=NOC(c3ccc(N4CCC(Oc5ccc(OC(F)(F)F)cc5)CC4)c(F)c3)C2)o1 (centres unmarked) [Compound 9c]	1.69 L/kg
O=[N+]([O-])c1ccc(C2=NOC(c3ccc(N4CCC(Oc5ccc(OC(F)(F)F)cc5)CC4)nc3)C2)o1 (centres unmarked) [Compound 9b]	1.53 L/kg

====

- METHOD DESCRIPTION: in vivo
- MEASUREMENT CONTEXT: male, Sprague-Dawley, rat, iv, 10 mg/kg

MOLECULE	half-life [h]
O=[N+]([O-])c1ccc(C2=NOC(c3ccc(N4CCC(Oc5ccc(OC(F)(F)F)cc5)CC4)nc3)C2)o1 (centres unmarked)	2.48
O=[N+]([O-])c1ccc(C2=NOC(c3ccc(N4CCC(Oc5ccc(OC(F)(F)F)cc5)CC4)c(F)c3)C2)o1 (centres unmarked)	5.6

====

Known half-life of a selection of compounds
- METHOD DESCRIPTION: in vitro
- MEASUREMENT CONTEXT: mouse, microsomes
MEASURE NAME: half-life (h)

COMPOUND	ASSAY VALUE
O=[N+]([O-])c1ccc(C2=NOC(c3ccc(N4CCC(Oc5ccc(F)cc5)CC4)c(F)c3)C2)o1 (centres unmarked)	1.74
C[C@]1(COc2ccc(N3CCC(Oc4ccc(OC(F)(F)F)cc4)CC3)cc2)Cn2cc([N+](=O)[O-])nc2O1	27.2
O=[N+]([O-])c1ccc(C2=NOC(c3ccc(N4CCC(Oc5ccc(F)cc5)CC4)cc3)C2)o1 (centres unmarked)	1.43
O=[N+]([O-])c1ccc(C2=NOC(c3ccc(N4CCC(Oc5ccc(OC(F)(F)F)cc5)CC4)cc3)C2)o1 (centres unmarked)	5.06
O=[N+]([O-])c1ccc(C2=NOC(c3ccc(N4CCC(Oc5ccc(F)cc5)CC4)nc3)C2)o1 (centres unmarked)	1.93
O=[N+]([O-])c1ccc(C2=NOC(c3ccc(N4CCC(Oc5ccc(OC(F)(F)F)cc5)CC4)c(F)c3)C2)o1 (centres unmarked)	7.04
O=[N+]([O-])c1ccc(C2=NOC(c3ccc(N4CCC(Oc5ccc(OC(F)(F)F)cc5)CC4)nc3)C2)o1 (centres unmarked)	6.91
O=[N+]([O-])c1cn2c(n1)OC[C@@H](OCc1ccc(OC(F)(F)F)cc1)C2	8.12
